Provenance of the data: the Human Domainome abundance scans (Beltran et al. 2025)

# Lookup of reported abundance fitness keyed by entry
B1: Retinoic acid receptor beta, residues 85 to 161; numbered along this chain, P10826 (parent)
chain: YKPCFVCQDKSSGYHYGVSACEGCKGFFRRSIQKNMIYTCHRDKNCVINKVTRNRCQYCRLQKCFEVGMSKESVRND

- Variants of: B1
- assay-info: abundance fitness (aPCA) (normalised: wild type 0, dead -1); higher = more abundant; growth selection in yeast, the domain comes from the species named
- conditions: Homo sapiens
Respond with the number and no other words.

Examples with their reported abundance fitness follow.
* YKPCFVCQDKSSGYHYGVSACEGCKGFFRRSIQKNMIYTCHEDKNCVINKVTRNRCQYCRLQKCFEVGMSKESVRND [R42E] | 0.07
* YKPCFVCQGKSSGYHYGVSACEGCKGFFRRSIQKNMIYTCHRDKNCVINKVTRNRCQYCRLQKCFEVGMSKESVRND [D9G] | -0.588

Which measured abundance fitness value corresponds to YKPCFVCQDKSSGYHYGVSACEGCKGFFRRSIQKNMIYTCHRDKNCVINTVTRNRCQYCRLQKCFEVGMSKESVRND [K50T] ?
0.125

Can you handle YKPCFMCQDKSSGYHYGVSACEGCKGFFRRSIQKNMIYTCHRDKNCVINKVTRNRCQYCRLQKCFEVGMSKESVRND [V6M] next?
-0.76
